Values from a melting point compilation (Tetko et al.; mined from patent text by program, amines drawn as free bases though some values may be those of a salt)

A collection of compounds and their measured melting point

Answered cases to consult:
- Compound: "CCOC(=O)CCC(=O)NCc1ccc([N+](=O)[O-])cc1"
  melting point: "104 to 106 °C"
- Compound: "CCn1nc(-c2ccc(F)cc2)c(-c2ccc(S(C)(=O)=O)cc2)cc1=O"
  melting point: "177 to 179 °C"
- Compound: "NC(=O)c1nnsc1NCCCCCCCCCCCCCCc1ccccc1"
  melting point: "79 to 81 °C"
- Compound: "O=C(Nc1ccc(O)cc1)C(=O)N1CCC(Cc2ccc(F)cc2)CC1"
  melting point: "98 to 100 °C"
- Compound: "Cn1cncc1C(c1ccc(Cl)cc1)c1ccc2c(c1)C(c1cccc(Cl)c1)SCCC(=O)N2 (stereo not given)"
  melting point: "199 °C"
- Compound: "NC(=O)N1C(=O)C(C(=O)c2cc(Cl)cs2)c2nc(Cl)ccc21 (stereo not given)"
  melting point: "> 250 °C"
- Compound: "CCOC(=NC(=O)Nc1ccc(OC(F)(F)F)cc1)c1ccccc1Cl"
  melting point: "86 to 89 °C"
- Compound: "O=C(O)CNC(=O)C=C(c1ccc(Cl)cc1)c1ccc(Cl)cc1"
  melting point: "166 to 168 °C"
- Compound: "O=C(CCl)NC[C@@H]1CN2C(=O)C[C@H]2O1 (racemic)"
  melting point: "65 to 66.4 °C"
- Compound: "CCSc1cc(O)c(C#N)s1"
  melting point: "105 °C"

Enquiry: Item under review: `N[C@@H](Cc1ccccc1)c1nc2c(C(F)(F)F)cccc2c(O)c1C(=O)Nc1nccs1` . Reported melting point?
Return: 234 °C

Enquiry: Bench note: what melting point did `COC(=O)CCc1cc2cc(Cl)ccc2n1S(=O)(=O)c1ccc(F)cc1` show?
Return: 129 to 131 °C

Enquiry: What melting point value was documented for this compound, CC12CCC3C(CCC4C(=O)CCCC43C)C1CCC2OC1CCCCO1 (stereo not given) ?
Return: 123 to 126 °C

Enquiry: For the compound `CC(=NOCCOc1ccc(C[C@H](Oc2ccc(C(C)(C)C)cc2)C(=O)O)cc1)c1ccc(-c2ccccc2)cc1` , what melting point is on record?
Return: 141 to 143 °C

Enquiry: Which melting point reading was recorded for the compound `COCCNC(=O)COc1ccn2nc(-c3ccccc3)c(-c3ccc(=O)n(C(C)C)n3)c2c1` ?
Return: 144 to 146 °C

Enquiry: Quick check: melting point of `COc1cc(CCN2CCC(NC(=O)c3ccccc3)CC2)cc(OC)c1OC` ?
Return: 193 to 194 °C

Enquiry: # melting point lookup, item `CCOC(=O)c1cn(C2CC2)c2cc(F)c(F)cc2c1=O`
Return: 189 to 191 °C

Enquiry: Item `O=C(NCCO)c1ccc(CCCc2ccccc2CCc2ccccc2)cc1` has what recorded melting point?
Return: 104 to 106 °C

Enquiry: Consider the compound shown here: `COc1cc(C(C)=O)ccc1OCCCN1CCN(c2nn(C(=O)c3ccccc3)c3cccc(F)c23)CC1` What is its recorded melting point?
Return: 138 to 140 °C

Enquiry: I have this compound here, `N#Cc1cc(C2=Nc3ccc(C4CC4)cc3NC(=O)C2)ccn1` , and I need its recorded melting point.
Return: 227 to 230 °C

====

Quantity Measured: melting point

- Compound: "CCOC(=O)c1ccc2c(c1)ncn2-c1cccc(COCc2ccccn2)c1"
  melting point: "99.8 to 101 °C"
- Compound: "OCc1c[nH]c(Sc2ccccc2)c1"
  melting point: "69 to 71 °C"
- Compound: "COc1cccc2c(CCBr)coc12"
  melting point: "61 to 62 °C"
- Compound: "Oc1ncnc2c1nc(CC1CCN(CC3COc4ccccc4O3)CC1)n2Cc1ccc(F)cc1 (stereo not given)"
  melting point: "201 °C"
- Compound: "CCCCc1oc2ccccc2c1-c1ncc(-c2ccc3cc(OC)ccc3c2)o1"
  melting point: "169 to 171 °C"
- Compound: "CC(=O)SCCC(=O)N1NC(=O)CC1C(=O)O (stereo not given)"
  melting point: "205 to 207 °C"
- Compound: "COc1ccc(-c2cnn3c(N)c(-c4ccc(F)c(Cl)c4)c(C)nc23)cc1"
  melting point: "224 to 227 °C"
- Compound: "O=C1CCOc2ccc(-c3ccccc3)cc21"
  melting point: "74 to 75 °C"
- Compound: "CC(=O)OCC1CC(OC(C)=O)C(n2c(Br)nc3cc(Cl)c(Cl)cc32)C1 (stereo not given)"
  melting point: "122 to 125 °C"

We next turn to a different compound, shown below.
Enquiry: So what does the record say about melting point for `O=C(C=Cc1c(-c2ccccc2)nn2ccccc12)N1CCCC[C@@H]1CCO` ?
Return: 145 to 146 °C

====

Quantity Measured: melting point

Solved entries (count: 4):
- Compound: "CCc1nc2c(N)nc3cc(CCC(=O)N4CCSC4)ccc3c2n1CC(C)(C)O"
  Result: "210 to 212 °C"
- Compound: "CC(C)NC(=S)N1CCc2[nH]cnc2C1C1CCCCC1 (stereo not given)"
  Result: "218 °C"
- Compound: "O=C(NCC12CC3CC(CC(C3)C1)C2)c1cc(NCCNCC(O)c2ccccc2)ccc1Cl (stereo not given)"
  Result: "63 to 64 °C"
- Compound: "O=C(NCCCN1C(=O)C2(COc3cc4c(cc32)CCO4)c2ccccc21)c1ccccc1OC(F)(F)F (stereo not given)"
  Result: "65 to 70 °C"

# context switch: different compound, same melting point
Enquiry: Quick check: melting point of `O=C(Oc1ccc(/C=c2\[nH]c(=O)/c(=C/c3ccccc3)[nH]c2=O)nc1)c1ccncc1` ?
Return: 262 to 264 °C

====

Each entry below lists one item and its recorded melting point value.

- Molecule: "Cn1cc(-c2cc(-c3cnc4[nH]ccc4c3)ccn2)n(-c2ccc(CC#N)cc2)c1=O"
  Result: "252 °C"
- Molecule: "O=C1CCCCC1C(C[N+](=O)[O-])c1ccc(F)cc1 (racemic)"
  Result: "84 to 85 °C"
- Molecule: "CCCCCCCCCCCCCCOc1cccc(CBr)c1CBr"
  Result: "55.7 to 56.5 °C"
- Molecule: "NC(=O)c1cn(C(CO)CCc2ccccc2)cn1 (stereo not given)"
  Result: "127 to 130 °C"

Read the next record carefully.
Enquiry: # melting point lookup, item `CS(=O)(=O)c1ccc(-c2nn3c(-c4ccc(F)cc4)coc3c2-c2ccc(F)cc2)cc1`
Return: 200 to 202 °C

====

Below is a list of entries, each paired with its recorded melting point value.

Enquiry: Recorded melting point of `Cn1ccc2c(C(=O)c3ccccc3O)cccc21` , please.
Return: 80 °C

Enquiry: Returns the measured melting point for the input compound. Input: `CCCCO/N=C(\C(=O)On1nnc2ccccc21)c1csc(NC(c2ccccc2)(c2ccccc2)c2ccccc2)n1`
Return: 100 to 102 °C

Enquiry: Which measured melting point value corresponds to COc1c(C)cnc(C(Br)C#N)c1C (stereo unspecified) ?
Return: 56 to 57 °C

Enquiry: // melting point lookup, key: `CS(=O)(=O)c1ccc(-c2cnn3c(O)ncnc23)cc1`
Return: > 300 °C

Enquiry: For `CCCOc1ccc(C(=O)OC)cc1C(C)=O` , what is its reported melting point?
Return: 44 to 47 °C

Enquiry: Report melting point for `O=C1N=NC(=O)N1c1c(F)c(F)c(F)c(F)c1F` please.
Return: 88 to 91 °C

====

List of melting point values.

Please review the following examples before continuing.
- Compound: "CCOCc1nc2c(N)nc3ccccc3c2n1CCCC(=O)N(C)OC"
  melting point: "163 to 165 °C"
- Compound: "CC(C)(C)OC(=O)N1CCc2cc(OCc3ccccc3)c(OCc3ccccc3)cc2C1Cc1ccc(NC(=O)c2ccccc2)c(I)c1 (stereo not given)"
  melting point: "151 to 153 °C"
- Compound: "Cc1cccc(OC(=O)C(=O)Oc2cccc(C)c2)c1"
  melting point: "101 to 103 °C"

Enquiry: Which melting point value belongs to `CC(=O)NC(C)(C)Cc1ccc2c(c1)CCC2` ?
Return: 130 to 131 °C

Enquiry: Quick one: melting point for CC1C(=O)N(c2ccccc2)C(=S)N1c1ccc(Oc2ccccc2Cl)cc1 (stereo not given) ?
Return: 108 °C

====

A collection of compounds and their measured melting point

Recorded results for 5 compounds are shown here.
- Compound: "Cc1ccc(-c2cc(N3CCCCC3)c(C#N)c3c2-c2ccccc2C3=O)cc1"
  Result: "230 to 232 °C"
- Compound: "CCCOc1ccccc1-c1nc2nc(N(C)C)nnc2c(=O)[nH]1"
  Result: "258 to 259 °C"
- Compound: "COc1ccccc1Sc1c(O)nc[nH]c1=O"
  Result: "291 °C"
- Compound: "CCOC(=O)C(=O)Nc1sc(C(=O)OCC)c(CC)c1[N+](=O)[O-]"
  Result: "70 to 73 °C"
- Compound: "CC(C)(C)c1cc(-c2csc(CO)n2)cc(C(C)(C)C)c1O"
  Result: "126 to 127 °C"

Enquiry: Endpoint output: melting point of `CC(=O)N1CCc2cc(C[C@@H](C)NCCOc3ccccc3OCC(F)(F)F)cc(C(N)=O)c21` . Value?
Return: 144 to 146 °C
